molecular target: Androgen receptor (Homo sapiens) (UniProt P10275); test: qHTS assay to identify small molecule antagonists of the androgen receptor (AR) signaling pathway using the MDA cell line in the presence of 0.5 nM R1881 (AID 1259243); details: MDA-kb2 MMTV-luciferase, R1881 0.5 nM, 16 h; series mostly up to 92.4 µM; note: nearly all actives have a fitted effect of over 50% in size
Sequence (P10275 whole entry, looked up): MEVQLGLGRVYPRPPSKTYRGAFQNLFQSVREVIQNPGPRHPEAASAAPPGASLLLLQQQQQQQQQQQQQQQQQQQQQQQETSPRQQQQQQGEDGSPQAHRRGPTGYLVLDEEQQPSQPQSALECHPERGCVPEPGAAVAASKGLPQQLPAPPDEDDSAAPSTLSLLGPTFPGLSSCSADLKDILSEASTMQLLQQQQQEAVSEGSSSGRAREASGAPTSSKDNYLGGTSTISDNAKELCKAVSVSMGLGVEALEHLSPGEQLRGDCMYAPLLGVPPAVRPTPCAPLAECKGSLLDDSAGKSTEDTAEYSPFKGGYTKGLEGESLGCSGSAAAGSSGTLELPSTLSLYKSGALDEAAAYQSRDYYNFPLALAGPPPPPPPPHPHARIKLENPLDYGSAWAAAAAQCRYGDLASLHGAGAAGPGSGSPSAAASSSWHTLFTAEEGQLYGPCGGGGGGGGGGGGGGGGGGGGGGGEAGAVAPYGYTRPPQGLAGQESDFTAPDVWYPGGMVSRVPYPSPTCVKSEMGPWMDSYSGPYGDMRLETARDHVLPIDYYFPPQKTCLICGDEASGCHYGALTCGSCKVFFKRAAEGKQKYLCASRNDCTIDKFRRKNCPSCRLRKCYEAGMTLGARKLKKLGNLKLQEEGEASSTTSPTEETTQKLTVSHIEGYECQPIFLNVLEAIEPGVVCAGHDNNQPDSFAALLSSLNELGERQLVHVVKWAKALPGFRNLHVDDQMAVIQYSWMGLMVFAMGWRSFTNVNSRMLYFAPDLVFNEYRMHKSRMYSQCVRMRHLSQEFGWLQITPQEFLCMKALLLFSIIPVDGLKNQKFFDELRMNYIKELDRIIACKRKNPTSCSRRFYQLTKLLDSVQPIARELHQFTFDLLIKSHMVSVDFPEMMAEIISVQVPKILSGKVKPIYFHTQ
Results filed as inconclusive are left out. Active and inactive are the calls of the source. Calls come from the whole dose curve; as a rule, active = well fitted inhibition curve with a large enough effect in the repeat runs; inconclusive = weak or mixed curves; inactive = no such curve, though single readings can be large or run the other way.
Possible outcomes: y for active, n for inactive

- compound: "NC(=O)c1ccccc1C(N)=O"
  measurement target: "Androgen receptor (Homo sapiens) (UniProt P10275)"
  assigned label: "n"
- compound: "CCOc1cc(OCC)c(C(C)=O)cc1OCC"
  measurement target: "Androgen receptor (Homo sapiens) (UniProt P10275)"
  assigned label: "y"
- compound: "FC(F)(Cl)C(F)(Cl)Cl"
  measurement target: "Androgen receptor (Homo sapiens) (UniProt P10275)"
  assigned label: "n"
- compound: "CC(C(=O)O)c1ccc2c(c1)Cc1cccnc1O2 (stereo unspecified)"
  measurement target: "Androgen receptor (Homo sapiens) (UniProt P10275)"
  assigned label: "n"
- compound: "N#C[C@@H]1CC(F)(F)CN1C(=O)CNC1CC2CCC(C1)N2c1ncccn1 (stereo partly specified)"
  measurement target: "Androgen receptor (Homo sapiens) (UniProt P10275)"
  assigned label: "n"
- compound: "CCCN(C1CCN(C(=O)C2CCNCC2)CC1)[C@@H]1CCc2ccc(OC)cc2C1"
  measurement target: "Androgen receptor (Homo sapiens) (UniProt P10275)"
  assigned label: "n"
- compound: "O=S(=O)(O)c1cc(Cl)c(Cl)cc1Cl"
  measurement target: "Androgen receptor (Homo sapiens) (UniProt P10275)"
  assigned label: "n"
- compound: "O=C(c1ccc(Cl)cc1)c1ccc(Cl)cc1"
  measurement target: "Androgen receptor (Homo sapiens) (UniProt P10275)"
  assigned label: "n"
- compound: "CCOc1ccc(NC(C)=O)cc1N"
  measurement target: "Androgen receptor (Homo sapiens) (UniProt P10275)"
  assigned label: "n"
- compound: "CCCC1CCOC(C)S1 (stereo unspecified)"
  measurement target: "Androgen receptor (Homo sapiens) (UniProt P10275)"
  assigned label: "n"
- compound: "O=C(O)c1cc(C(=O)O)c(C(=O)O)cc1C(=O)O"
  measurement target: "Androgen receptor (Homo sapiens) (UniProt P10275)"
  assigned label: "n"
- compound: "CCC1=C(C)CN(C(=O)NCCc2ccc(S(=O)(=O)NC(=O)NC3CCC(C)CC3)cc2)C1=O (stereo unspecified)"
  measurement target: "Androgen receptor (Homo sapiens) (UniProt P10275)"
  assigned label: "n"
- compound: "O=C(O)c1cccc(C(=O)O)c1C(=O)O"
  measurement target: "Androgen receptor (Homo sapiens) (UniProt P10275)"
  assigned label: "n"
- compound: "Cc1nc(C)c(C)nc1C"
  measurement target: "Androgen receptor (Homo sapiens) (UniProt P10275)"
  assigned label: "n"
- compound: "O=C(c1ccco1)N1CCNCC1"
  measurement target: "Androgen receptor (Homo sapiens) (UniProt P10275)"
  assigned label: "n"
- compound: "CCC(C(=O)O)c1ccc(N2Cc3ccccc3C2=O)cc1 (stereo unspecified)"
  measurement target: "Androgen receptor (Homo sapiens) (UniProt P10275)"
  assigned label: "n"

* * *

target: Nuclear receptor subfamily 1 group I member 3 (Homo sapiens) (UniProt Q14994); test: qHTS assay to identify small molecule agonists of the constitutive androstane receptor (CAR) signaling pathway (AID 1224839); conditions: HepG2 hCAR CYP2B6-luciferase, agonist mode, 24 h; series mostly up to 92.4 µM; note: nearly all actives have a fitted effect of over 15% in size;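 for activation: HepG2 cells stably carrying human CAR and a CYP2B6 luciferase reporter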
Sequence (Q14994 whole entry, looked up): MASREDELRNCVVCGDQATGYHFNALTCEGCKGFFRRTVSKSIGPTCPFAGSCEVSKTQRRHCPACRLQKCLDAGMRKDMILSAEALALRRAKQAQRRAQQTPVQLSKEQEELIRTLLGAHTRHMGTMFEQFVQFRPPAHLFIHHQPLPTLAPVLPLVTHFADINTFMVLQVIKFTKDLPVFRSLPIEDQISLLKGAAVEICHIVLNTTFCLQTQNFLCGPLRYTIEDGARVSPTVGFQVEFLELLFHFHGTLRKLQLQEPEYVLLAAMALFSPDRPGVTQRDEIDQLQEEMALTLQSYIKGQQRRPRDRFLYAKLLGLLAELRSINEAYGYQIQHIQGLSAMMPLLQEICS
Results filed as inconclusive are left out. The source made the active and inactive calls. The call rests on the fitted dose curve; in most records, active means well fitted activation curve with a large enough effect in the repeat runs; inconclusive means weak or mixed curves; inactive means no such curve, though single readings can be large or run the other way.
Outcomes: true (active), false (inactive)

- compound: "C=CC(O)CCCCC (configuration not stated)"
  assigned label: "false"
- compound: "O=Cc1ccc([N+](=O)[O-])cc1"
  assigned label: "true"
- compound: "O=C(Cl)c1ccc(F)c(Cl)c1"
  assigned label: "false"
- compound: "CC(C)CC(C)(C)C"
  assigned label: "true"
- compound: "CCC(=O)O[C@@H]1C[C@H]2CC[C@]1(C)C2(C)C"
  assigned label: "false"
- compound: "O=C(OCCN1CCOCC1)c1cccnc1Nc1cccc(C(F)(F)F)c1"
  assigned label: "false"
- compound: "Cc1ccc2ccccc2c1[N+](=O)[O-]"
  assigned label: "false"

* * *

experiment: A CellTox Green Cytotoxicity Assay to monitor cytotoxicity in HepG2 cells - 16 hour (AID 1224876); conditions: CellTox Green fluorescence; series mostly up to 76.8 µM; note: nearly all actives have a fitted effect of over 45% in size
Inconclusive results are not listed. Calls of active or inactive are those of the source. Calls follow the shape of the dose curve; as a rule, active = well fitted activation curve with a large enough effect in the repeat runs; inconclusive = weak or mixed curves; inactive = flat fitted curve, though single readings scatter.
Outcome codes: active, inactive

- compound: "CCCCCCCCCCCC(=O)OCC"
  assigned label: "inactive"
- compound: "Cc1nc2sccn2c(=O)c1CCN1CCC(=C(c2ccc(F)cc2)c2ccc(F)cc2)CC1"
  assigned label: "inactive"
- compound: "CC(=O)S[C@H](C(=O)N[C@H]1Cc2ccccc2[C@H]2CCC[C@@H](C(=O)O)N2C1=O)C(C)C"
  assigned label: "inactive"
- compound: "CCn1nc(Cc2ccccc2)cc1C1CCN(C[C@H]2C[C@H](N(C)[C@@H](C(=O)O)C(C)C)C[C@@H]2c2cccc(F)c2)CC1"
  assigned label: "inactive"
- compound: "CCC1=C(C)CN(C(=O)NCCc2ccc(S(=O)(=O)NC(=O)NC3CCC(C)CC3)cc2)C1=O (stereo unspecified)"
  assigned label: "inactive"
- compound: "O=c1[nH][nH]c2ccccc12"
  assigned label: "inactive"
- compound: "CC(=O)CC/C=C(\\C)CC/C=C(\\C)CC/C=C(\\C)CCC=C(C)C"
  assigned label: "inactive"
- compound: "CC(C)C[C@H](NC(=O)[C@H](Cc1ccccc1)NC(=O)c1cnccn1)B(O)O"
  assigned label: "active"
- compound: "CC(C)=CCC[C@H](C)CCO"
  assigned label: "inactive"
- compound: "COc1cc(C)c(Cc2cnc(N)nc2N)cc1OC"
  assigned label: "inactive"
- compound: "O=[N+]([O-])c1cccc(I)c1"
  assigned label: "inactive"
- compound: "Cc1ccc2ccccc2c1[N+](=O)[O-]"
  assigned label: "inactive"
- compound: "C=C(C)C(=O)OCCCCCCCCCCOC(=O)C(=C)C"
  assigned label: "inactive"
- compound: "Cc1c(Cl)cccc1[N+](=O)[O-]"
  assigned label: "inactive"
- compound: "CC(COc1ccccc1)NC(C)C(O)c1ccc(O)cc1 (stereo unspecified)"
  assigned label: "inactive"
- compound: "CCOC(=O)CC(O)(CC(=O)OCC)C(=O)OCC"
  assigned label: "inactive"
- compound: "Cc1c(Nc2ncccc2C(=O)O)cccc1C(F)(F)F"
  assigned label: "inactive"
- compound: "CCCCCCCCS"
  assigned label: "inactive"
- compound: "C=CC(C)(O)CC/C=C(/C)CCC=C(C)C (stereo unspecified)"
  assigned label: "inactive"
- compound: "Sc1nc(S)nc(S)n1"
  assigned label: "inactive"
- compound: "O=C(O)c1cccnc1Nc1cccc(C(F)(F)F)c1"
  assigned label: "inactive"
- compound: "NC(=O)c1ccccc1"
  assigned label: "inactive"
- compound: "COc1cccc([C@H](O)C2CCN(CCc3ccc(F)cc3)CC2)c1OC"
  assigned label: "inactive"
- compound: "CC(C)Cc1nccs1"
  assigned label: "inactive"
- compound: "COc1cc(CNC(=O)CCCC/C=C/C(C)C)ccc1O"
  assigned label: "inactive"
- compound: "O=C(O)COCC(=O)O"
  assigned label: "inactive"

* * *

assay: qHTS assay to identify small molecule antagonists of the estrogen receptor alpha (ER-alpha) signaling pathway using the BG1 cell line (AID 743080); details: BG1Luc4E2 ERE-luciferase antagonist mode, luminescence; series mostly up to 70.3 µM;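 note: BG1 cells stimulated with 17beta-estradiol alongside compound; nearly all actives have a fitted effect of over 25% in size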
Records with an inconclusive call do not appear. Calls of active or inactive are those of the source. The call rests on the fitted dose curve.
Outcomes: active, inactive

- compound: "CCCOC(C)=O"
  assigned label: "inactive"
- compound: "CC1(COc2ccc(CC3SC(=O)NC3=O)cc2)CCCCC1 (centres undefined)"
  assigned label: "inactive"
- compound: "CCN(CCCCOC(=O)c1ccc(OC)c(OC)c1)C(C)Cc1ccc(OC)cc1 (centres undefined)"
  assigned label: "inactive"
- compound: "NC(=O)c1ccccc1C(N)=O"
  assigned label: "inactive"
- compound: "CC[C@H](NC(C)C)[C@H](O)c1ccc(O)c2[nH]c(=O)ccc12"
  assigned label: "inactive"
- compound: "Cc1ccc(NC=O)c(C)c1"
  assigned label: "inactive"
- compound: "O=c1[nH]nc(-c2ccc([N+](=O)[O-])o2)o1"
  assigned label: "inactive"
- compound: "O=C1OC(=O)C2CC=CCC12 (centres undefined)"
  assigned label: "inactive"
- compound: "C=CC(=O)OCCCCCCCCCC"
  assigned label: "inactive"
- compound: "CC(COc1ccccc1)NC(C)C(O)c1ccc(O)cc1 (centres undefined)"
  assigned label: "inactive"
- compound: "CCC[Si](OC)(OC)OC"
  assigned label: "inactive"
- compound: "O=C(O)c1ccc(O)c(O)c1"
  assigned label: "inactive"
- compound: "O=C(O)c1ccc2cc(O)ccc2c1"
  assigned label: "inactive"
- compound: "NC(=O)c1cc[n+](CC2=C(C(=O)[O-])N3C(=O)[C@@H](NC(=O)Cc4cccs4)[C@H]3SC2)cc1"
  assigned label: "inactive"
- compound: "CCOC(OCC)OCC"
  assigned label: "inactive"
- compound: "CC(=O)Nc1cccc(N)c1"
  assigned label: "inactive"
- compound: "O=C(O)c1ccc2c(c1)nc(C(=O)NC1CCN(C3CC3)CC1)n2Cc1cc(-c2ccc(Cl)s2)on1"
  assigned label: "inactive"
- compound: "C[C@@H](O)[C@H]1C(=O)N2C(C(=O)O)=C(S[C@@H]3CN[C@H](CNS(N)(=O)=O)C3)[C@H](C)[C@H]12"
  assigned label: "inactive"
- compound: "O=S(=O)(O)c1cc(Cl)c(Cl)cc1Cl"
  assigned label: "inactive"
- compound: "CC(CCl)OC(C)CCl (centres undefined)"
  assigned label: "inactive"
- compound: "CCCCCCCCCCCCCCCCN"
  assigned label: "inactive"
- compound: "Nc1ncnc2c1ncn2[C@@H]1O[C@H](CO)[C@@H](O)[C@H]1O"
  assigned label: "inactive"
- compound: "Clc1cccc(C(c2ccc3nc[nH]c3c2)n2ccnc2)c1 (centres undefined)"
  assigned label: "active"
- compound: "CC1(C)CC(O)CC(C)(C)N1[O]"
  assigned label: "inactive"
- compound: "O=C(O)CCc1nc2ccccc2[nH]1"
  assigned label: "inactive"
- compound: "CC(=O)c1ccc(Cl)c(Cl)c1Cl"
  assigned label: "inactive"
- compound: "Cc1ccc2c(Cl)cc(Cl)c(O)c2n1"
  assigned label: "active"
- compound: "Cc1cc(C)c(C)c(O)c1"
  assigned label: "inactive"
- compound: "CC(C)NC(=O)c1ccccc1N"
  assigned label: "inactive"
- compound: "COC(=O)c1cc(Cl)ccc1[N+](=O)[O-]"
  assigned label: "inactive"
- compound: "CC(=O)c1cccnc1"
  assigned label: "inactive"
- compound: "O=P(c1ccccc1)(c1ccccc1)c1ccccc1"
  assigned label: "inactive"
- compound: "CC(C)(C(=O)O)c1ccc(C(O)CCCN2CCC(C(O)(c3ccccc3)c3ccccc3)CC2)cc1 (centres undefined)"
  assigned label: "inactive"
- compound: "CCC(CC)C(=O)O"
  assigned label: "inactive"
- compound: "CCC1=C(C)CN(C(=O)NCCc2ccc(S(=O)(=O)NC(=O)NC3CCC(C)CC3)cc2)C1=O (centres undefined)"
  assigned label: "inactive"
- compound: "NC(=O)c1ccccc1"
  assigned label: "inactive"
- compound: "CCCCCO"
  assigned label: "inactive"
- compound: "COc1cc(C)c(Cc2cnc(N)nc2N)cc1OC"
  assigned label: "inactive"
- compound: "CC(C)CC(C)(C)C"
  assigned label: "inactive"
- compound: "O=Cc1ccc([N+](=O)[O-])cc1"
  assigned label: "inactive"
- compound: "Nc1ccc(F)cc1F"
  assigned label: "inactive"
- compound: "CC1=C(C)C(=O)C(C(CCCCCC(=O)O)c2ccccc2)=C(C)C1=O (centres undefined)"
  assigned label: "inactive"
- compound: "Cc1c(Cl)cccc1Nc1ccccc1C(=O)O"
  assigned label: "inactive"
- compound: "C=Cc1ccc(C=C)cc1"
  assigned label: "inactive"
- compound: "Cc1ccc2ccccc2c1[N+](=O)[O-]"
  assigned label: "inactive"
- compound: "O=C(O)c1cccc(C(=O)O)c1C(=O)O"
  assigned label: "inactive"
- compound: "CCCCCCOC(=O)c1ccccc1"
  assigned label: "inactive"
- compound: "OCC(O)c1ccccc1 (centres undefined)"
  assigned label: "inactive"
- compound: "C1=COCCC1"
  assigned label: "inactive"
